Data credit: patent US20150125402A1

inhibition at 2000 ppm values by entry
test system: Escherichia coli; test: Bactericidal activity in solution (Activity % Reduction); format: cell-based; settings: 5 min, 2000 ppm in water at ambient temperature

COMPOUND: CCCCCCCC1CC(=O)C=C(C)C1 (stereo not shown) [3-Methyl-5-Heptyl-2-Cyclohexenone, 3-methyl-5-heptyl-2-cyclohexenone]
UNIT_NAME: %
inhibition at 2000 ppm: 13.9
//
COMPOUND: CCCCC1CC(=O)C=C(C)C1 (stereo not shown) [3-Methyl-5-Butyl-2-Cyclohexenone, 3-methyl-5-butyl-2-cyclohexenone]
UNIT_NAME: %
inhibition at 2000 ppm: 83.8
//
COMPOUND: CCCC1CC(=O)C=C(C)C1 (stereo not shown) [3-Methyl-5-Propyl-2-Cyclohexenone, 3-methyl-5-propyl-2-cyclohexenone]
UNIT_NAME: %
inhibition at 2000 ppm: 69.5
//
COMPOUND: CCCCC1CC(C)=CC(O)C1 (stereo not shown) [3-Methyl-5-Butyl-2-Cyclohexenol, 3-methyl-5-butyl-2-cyclohexenol]
UNIT_NAME: %
inhibition at 2000 ppm: 34.7
